Would you kindly list viability, T/C for each of these molecules?
- System: 648629-189-R-J1-PDC complex spheroids viability
- assay-overview: Anticancer human tumor 648629-189-R-J1-PDC patient-derived bladder carcinoma cell line growth inhibition [CLK]
- protocol-conditions: second compound 1 µM; first compound 0.0949 µM; stronger effect = lower value

Input line: I am curious: what viability, T/C value has been reported for C=CC(=O)Nc1cc(Nc2nccc(-c3cn(C)c4ccccc34)n2)c(OC)cc1N(C)CCN(C)C + CN1CCN(c2cc(C(=O)Nc3cc4cc(-c5cnn(C)c5)ccc4cn3)ccn2)CC1 ?
Output line: 0.24%

Input line: I am curious: what viability, T/C value has been reported for CC(C)CC(NC(=O)C(Cc1ccccc1)NC(=O)c1cnccn1)B(O)O (stereo not drawn) + CNC(=O)c1ccc(Nc2nc(OC3CCCC3)c3c(-c4ccc5nc(C)oc5c4)c[nH]c3n2)c(OC)c1 ?
Output line: 0.34%

Input line: I am curious: what viability, T/C value has been reported for NC(=O)C(=Cn1cnc(-c2cc(C(F)(F)F)cc(C(F)(F)F)c2)n1)c1cncnc1 + CN1CCN(c2cc(C(=O)Nc3cc4cc(-c5cnn(C)c5)ccc4cn3)ccn2)CC1 ?
Output line: 0.12%

###

- System: 648629-189-R-J1-PDC complex spheroids viability
- assay-overview: Anticancer human tumor 648629-189-R-J1-PDC cell line growth inhibition [CLK]
- protocol-conditions: curve of first compound; second compound 0.316 µM
metric: IC50

Input line: I am curious: what IC50 value has been reported for NC(=O)C(=Cn1cnc(-c2cc(C(F)(F)F)cc(C(F)(F)F)c2)n1)c1cncnc1 + CNC(=O)c1ccc(Nc2nc(OC3CCCC3)c3c(-c4ccc5nc(C)oc5c4)c[nH]c3n2)c(OC)c1 ?
Output line: < 9.49 nM

Input line: I am curious: what IC50 value has been reported for COc1c(OCCCN2CCOCC2)ccc2c3n(c(=NC(=O)c4cnc(N)nc4)nc12)CCN3 + CN1CCN(c2cc(C(=O)Nc3cc4cc(-c5cnn(C)c5)ccc4cn3)ccn2)CC1 ?
Output line: < 3.16 nM

Input line: I am curious: what IC50 value has been reported for Cn1ncnc1[C@H]1c2n[nH]c(=O)c3cc(F)cc(c23)N[C@@H]1c1ccc(F)cc1 + CNC(=O)c1ccc(Nc2nc(OC3CCCC3)c3c(-c4ccc5nc(C)oc5c4)c[nH]c3n2)c(OC)c1 ?
Output line: < 0.316 nM

Input line: I am curious: what IC50 value has been reported for O=C(c1cc(Cc2n[nH]c(=O)c3ccccc23)ccc1F)N1CCN(C(=O)C2CC2)CC1 + CN1CCN(c2cc(C(=O)Nc3cc4cc(-c5cnn(C)c5)ccc4cn3)ccn2)CC1 ?
Output line: < 31.6 nM

Input line: I am curious: what IC50 value has been reported for Nc1ccn(C2OC(CO)C(O)C2(F)F)c(=O)n1 (stereo not given) + CNC(=O)c1ccc(Nc2nc(OC3CCCC3)c3c(-c4ccc5nc(C)oc5c4)c[nH]c3n2)c(OC)c1 ?
Output line: < 31.6 nM

Input line: I am curious: what IC50 value has been reported for C=CC(=O)N1CCN(c2nc(=O)n(-c3c(C)ccnc3C(C)C)c3nc(-c4c(O)cccc4F)c(F)cc23)C(C)C1 (stereo not given) + CN1CCN(c2cc(C(=O)Nc3cc4cc(-c5cnn(C)c5)ccc4cn3)ccn2)CC1 ?
Output line: 1030 nM

Input line: I am curious: what IC50 value has been reported for CC(=O)O[C@H]1C(=O)[C@@]2(C)[C@H]([C@H](OC(=O)c3ccccc3)[C@]3(O)C[C@H](OC(=O)[C@H](O)[C@@H](NC(=O)c4ccccc4)c4ccccc4)C(C)=C1C3(C)C)[C@]1(OC(C)=O)CO[C@@H]1C[C@@H]2O + CNC(=O)c1ccc(Nc2nc(OC3CCCC3)c3c(-c4ccc5nc(C)oc5c4)c[nH]c3n2)c(OC)c1 ?
Output line: < 31.6 nM

Input line: I am curious: what IC50 value has been reported for COc1ccc([C@@H](O)c2cc(-c3ncnc4cc(N5CCOCC5)ccc34)c(F)cc2Cl)nn1 + CN1CCN(c2cc(C(=O)Nc3cc4cc(-c5cnn(C)c5)ccc4cn3)ccn2)CC1 ?
Output line: < 31.6 nM

Input line: I am curious: what IC50 value has been reported for COc1c(OCCCN2CCOCC2)ccc2c3n(c(=NC(=O)c4cnc(N)nc4)nc12)CCN3 + CNC(=O)c1ccc(Nc2nc(OC3CCCC3)c3c(-c4ccc5nc(C)oc5c4)c[nH]c3n2)c(OC)c1 ?
Output line: < 3.16 nM

Input line: I am curious: what IC50 value has been reported for Nc1ccn(C2OC(CO)C(O)C2(F)F)c(=O)n1 (stereo not given) + CN1CCN(c2cc(C(=O)Nc3cc4cc(-c5cnn(C)c5)ccc4cn3)ccn2)CC1 ?
Output line: < 31.6 nM

Taken from PubChem BioAssay AID2060602.
